log10(Cmax of mexiletine) overview
Assay: Systemic availability of mexiletine in the cynomolgus monkey from mexiletine prodrugs (oral gavage)
Type: in vivo
Settings: 1 mg/kg mexiletine free base, plasma mexiletine
Record value = log10 of Cmax of mexiletine given in ng/mL.

• Cc1cccc(C)c1OCC(C)NC(=O)C(N)C1CC1 (stereo not drawn) [Mexiletine cyclopropyl glycine amide] = -0.05

# log10(Cmax of mexiletine) of Cc1cccc(C)c1OCC(C)NC(=O)C(N)CCC(=O)O.Cl (mixture of isomers) [Mexiletine glutamic acid amide] = 1.96

The recorded log10(Cmax of mexiletine) for entry Cc1cccc(C)c1OCC(C)NC(=O)[C@@H](N)CCCCN=C(N)N.Cl.Cl (stereo partly drawn) [Mexiletine homo arginine amide] equals 1.75

Item: Cc1cccc(C)c1OCC(C)NC(=O)[C@@H](N)CCC(N)=O.Cl (stereo partly drawn) [Mexiletine glutamine amide] | log10(Cmax of mexiletine): 2.02

Memo: Cc1cccc(C)c1OCC(C)NC(=O)[C@@H](N)C[S+](C)[O-].O=C(O)C(F)(F)F (stereo partly drawn) [Mexiletine [(R)-S-methyl-cysteine] , reported log10(Cmax of mexiletine): 1.79

Looking up CC(=O)N[C@@H](CCCCN)C(=O)NC(C)COc1c(C)cccc1C.Cl (stereo partly drawn) [Mexiletine [(S)-N^α-acetyl-lysine] amide] , I see its log10(Cmax of mexiletine) listed as 1.48

// log10(Cmax of mexiletine) value for Cc1cccc(C)c1OCC(C)NC(=O)C(N)CN (stereo not drawn) : 1.92

###

Below, each of the molecules is paired with its reported F(rel) value.
Assay: Systemic availability of mexiletine in the dog from mexiletine prodrugs (oral gavage)
Type: in vivo
Conditions: 1 mg/kg mexiletine free base, relative to mexiletine
Method: Test substances (i.e., mexiletine, and various mexiletine amino acid prodrugs) were administered by oral gavage to groups of two or some cases five dogs. The characteristics of the test animals are set out in Table 6. Blood samples were taken at various times after administration and submitted to analysis for parent drug using a validated LC-MS-MS assay. Pharmacokinetic parameters derived from the plasma bioanalytical data were determined using Win Nonlin.
Marks after values point to notes of the source that are not given here.

• Cc1cccc(C)c1OCC(C)NC(=O)[C@@H](N)CCCCN=C(N)N.Cl.Cl (some centres unmarked) [Mexiletine homo arginine amide] = 52.4%
• Cc1cccc(C)c1OCC(C)NC(=O)[C@@H](N)CCC(N)=O.Cl (some centres unmarked) [Mexiletine glutamine amide] = 73.5%
• Cc1cccc(C)c1OCC(C)NC(=O)[C@@H](N)CCCCN.O=C(O)C(F)(F)F.O=C(O)C(F)(F)F (mixture of isomers) [Mexiletine (S)-lysine amide] = 28.0** %
• Cc1cccc(C)c1OCC(C)NC(=O)[C@@H](N)C[S+](C)[O-].O=C(O)C(F)(F)F (stereo partly drawn) [Mexiletine [(R)-S-methyl-cysteine] = 13.4%

Pending molecule:
Please fill in: F(rel) reported for Cc1cccc(C)c1OCC(C)NC(=O)C(N)CN (centres unmarked) = 77.9%

###

Assay: Systemic availability of mexiletine in the cynomolgus monkey from mexiletine prodrugs (oral gavage)
Type: in vivo
Conditions: 1 mg/kg mexiletine free base, plasma mexiletine
Where a name gives a salt, the structure may show the parent alone.
Readout Type: T50% Cmax (h)
Report the figure in h without appending any unit label.

• Cc1cccc(C)c1OCC(C)NC(=O)[C@@H](N)CC[S+](C)C (stereo partly shown) [Mexiletine S-methyl-methionine chloride, Hydrochloride] = 5.99
• Cc1cccc(C)c1OCC(C)NC(=O)C(N)CCCNC(=N)N (stereo not shown) [Mexiletine arginine amide] = 4.48
• Cc1cccc(C)c1OCC(C)NC(=O)C(N)CCC(=O)O.Cl (mixture of isomers) [Mexiletine glutamic acid amide] = 4.76

// next entry
T50% Cmax measured on Cc1cccc(C)c1OCC(C)NC(=O)C(N)CO (stereo not shown) [Mexiletine serine amide] = 5.05

###

Assay: In vitro stability of mexiletine prodrugs under conditions prevailing in the gut
Format: physicochemical
Settings: 0.1M phosphate buffer pH 7.4, 2 h
Where a name gives a salt, the structure may show the parent alone.
Readout Type: pH 7.4, 37° C. 0.1M phosphate buffer: % remaining after 2 h/37° C. (%)
Please state the figure in %; there is no need to write the unit.

• Cc1cccc(C)c1OCC(C)NC(=O)[C@@H](N)C(C)C.Cl (stereo partly drawn) [Mexiletine valine amide] = 98.8

GET /value?item= Cc1cccc(C)c1OCC(C)NC(=O)[C@@H](N)CC(=O)O (stereo partly drawn) [Mexiletine-(S)-aspartic acid amide, Hydrochloride] &field=pH 7.4, 37° C. 0.1M phosphate buffer: % remaining after 2 h/37° C. returns 99.9

Documented pH 7.4, 37° C. 0.1M phosphate buffer: % remaining after 2 h/37° C. of Cc1cccc(C)c1OCC(C)NC(=O)[C@@H](N)CC[S+](C)C (stereo partly drawn) [Mexiletine S-methyl-methionine chloride, Hydrochloride] : 99.8

// field: pH 7.4, 37° C. 0.1M phosphate buffer: % remaining after 2 h/37° C.; key: CNC(=N)NCCC[C@H](N)C(=O)NC(C)COc1c(C)cccc1C (stereo partly drawn) [Mexiletine (S)-N-methylarginine amide, Dihydrochloride] ; value = 99.9

// pH 7.4, 37° C. 0.1M phosphate buffer: % remaining after 2 h/37° C. value for Cc1cccc(C)c1OCC(C)NC(=O)[C@@H](N)CCCCN.O=C(O)C(F)(F)F.O=C(O)C(F)(F)F (mixture of isomers) [Mexiletine (S)-lysine amide] : 100

// pH 7.4, 37° C. 0.1M phosphate buffer: % remaining after 2 h/37° C. lookup, molecule = Cc1cccc(C)c1OCC(C)NC(=O)CN.O=C(O)C(F)(F)F (racemic) [Mexiletine glycine amide] , result: 99.9

Briefly, pH 7.4, 37° C. 0.1M phosphate buffer: % remaining after 2 h/37° C. measured for Cc1cccc(C)c1OCC(C)NC(=O)[C@@H](N)CCCN (stereo partly drawn) [Mexiletine ornithine amide, Di-hydrochloride] : 99.5

Note to self: pH 7.4, 37° C. 0.1M phosphate buffer: % remaining after 2 h/37° C. recorded for Cc1cccc(C)c1OCC(C)NC(=O)C(N)CCC(=O)O.Cl (mixture of isomers) [Mexiletine glutamic acid amide] was 100

The value of pH 7.4, 37° C. 0.1M phosphate buffer: % remaining after 2 h/37° C. measured for the molecule Cc1cccc(C)c1OCC(C)NC(=O)C(N)CCCNC(=N)N(C)C.Cl.Cl (mixture of isomers) turned out to be 99.6

###

# T50% Cmax values compiled below
Test: Systemic availability of mexiletine in the dog from mexiletine prodrugs (oral gavage)
Type: in vivo
Settings: 1 mg/kg mexiletine free base, plasma mexiletine
Return type: number; implicit unit h.

* Cc1cccc(C)c1OCC(C)NC(=O)[C@@H](N)CCC(N)=O.Cl (stereo partly drawn) [Mexiletine glutamine amide] | 5.60

Could you now look at the following compound, please?
Lookup result for Cc1cccc(C)c1OCC(C)NC(=O)[C@@H](N)CCCCN=C(N)N.Cl.Cl (stereo partly drawn) [Mexiletine homo arginine amide] ; measured T50% Cmax: 5.39

###

Assay: Systemic availability of mexiletine in the dog from mexiletine prodrugs (oral gavage)
Format: in vivo
Details: 1 mg/kg mexiletine free base, plasma mexiletine
Marks after values point to notes of the source that are not given here.
Readout Type: Cmax of mexiletine

• Cc1cccc(C)c1OCC(C)NC(=O)CCN (stereo not drawn) [Mexiletine β alanine amide] = BLQ
• Cc1cccc(C)c1OCC(C)NC(=O)[C@@H](N)CCCCN.O=C(O)C(F)(F)F.O=C(O)C(F)(F)F (mixture of isomers) [Mexiletine (S)-lysine amide] = 54.4** ng/mL
• Cc1cccc(C)c1OCC(C)NC(=O)c1cccnc1 (stereo not drawn) [Mexiletine nicotinic acid amide] = BLQ

###

Assay: Systemic availability of mexiletine in the dog from mexiletine prodrugs (oral gavage)
Type: in vivo
Conditions: 1 mg/kg mexiletine free base, plasma mexiletine
Where a name gives a salt, the structure may show the parent alone.
Readout Type: T50% Cmax (h)
A number alone suffices; assume h.

Example results:
• Cc1cccc(C)c1OCC(C)NC(=O)C(N)CO (stereo not shown) [Mexiletine serine amide] = 6.00
• Cc1cccc(C)c1OCC(C)NC(=O)[C@@H](N)C[S+](C)[O-].O=C(O)C(F)(F)F (stereo partly drawn) [Mexiletine [(R)-S-methyl-cysteine] = 1.63
• Cc1cccc(C)c1OCC(C)NC(=O)C(N)CN (stereo not shown) = 10.0
• Cc1cccc(C)c1OCC(C)NC(=O)C(N)CCC(=O)O.Cl (mixture of isomers) [Mexiletine glutamic acid amide] = 7.64
• CC(=O)N[C@@H](CCCCN)C(=O)NC(C)COc1c(C)cccc1C.Cl (stereo partly drawn) [Mexiletine [(S)-N^α-acetyl-lysine] amide] = 8.08

Please find the next molecule below.
The value of T50% Cmax measured for the molecule Cc1cccc(C)c1OCC(C)NC(=O)[C@@H](N)CC[S+](C)C (stereo partly shown) [Mexiletine S-methyl-methionine chloride, Hydrochloride] turned out to be 5.92

###

Experiment: Systemic availability of mexiletine in the dog from mexiletine prodrugs (oral gavage)
Type: in vivo
Conditions: 1 mg/kg mexiletine free base, plasma mexiletine
Marks after values point to notes of the source that are not given here.
Recorded T50% Cmax for the following compounds

Sample answers from the record:
- Cc1cccc(C)c1OCC(C)NC(=O)CN.O=C(O)C(F)(F)F (racemic) [Mexiletine glycine amide]: 5.5** h
- Cc1cccc(C)c1OCC(C)NC(=O)[C@@H](N)C(C)C.Cl (stereo partly shown) [Mexiletine valine amide]: 5.0** h
- Cc1cccc(C)c1OCC(C)NC(=O)C(N)CCCNC(=N)N (stereo not shown) [Mexiletine arginine amide]: 6.5** h

Next up:
compound Cc1cccc(C)c1OCC(C)NC(=O)[C@@H](NC(=O)[C@@H](N)C(C)C)C(C)C.Cl (stereo partly shown) [Mexiletine valine-valine amide] , T50% Cmax observed: 4.25** h
